# target.of.assay: rat liver microsomal 5α-reductase (Rattus norvegicus)
# Construct: The reaction was started with the addition of liver microsomes (20 μg protein); from tissue; host or cells: liver microsomes of male Sprague–Dawley rats
# Sequence (P24008 whole entry): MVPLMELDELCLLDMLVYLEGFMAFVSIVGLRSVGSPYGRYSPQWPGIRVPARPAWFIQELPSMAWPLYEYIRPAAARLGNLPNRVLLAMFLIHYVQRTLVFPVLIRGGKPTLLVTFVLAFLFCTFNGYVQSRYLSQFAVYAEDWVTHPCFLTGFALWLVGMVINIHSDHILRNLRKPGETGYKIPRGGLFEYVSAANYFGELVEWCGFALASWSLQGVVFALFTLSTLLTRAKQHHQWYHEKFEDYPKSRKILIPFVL
# protocol.description: 5α-reductase assay using rat liver microsomes (testosterone metabolism, HPLC and TLC)
# Assay type: biochemical
# assay.conditions: test sample 1 μmol/L; testosterone 3.5 μmol/L, 30 min, rat liver microsomes 40 μg/mL, HPLC; mean ± SEM, N = 3
assay.endpoint: Inhibitory activity on 5α-reductase (% of control)

compound	target.of.assay	result
O=C(OC[C@H]1OC(OC(=O)c2cc(O)c(O)c(O)c2)[C@H](OC(=O)c2cc(O)c(O)c(O)c2)[C@@H](OC(=O)c2cc(O)c(O)c(O)c2)[C@@H]1O)c1cc(O)c(O)c(O)c1 (stereo partly shown)	rat liver microsomal 5α-reductase (Rattus norvegicus)	18.7 ± 0.4 % of control
O=C1OC[C@H]2OC(=O)c3cc(O)c(O)c(O)c3-c3c(O)c(O)c(O)c4c3C(=O)O[C@H]([C@H]3OC(=O)c5c-4c(O)c(O)c(O)c5[C@H]3O)[C@@H]2OC(=O)c2cc(O)c(O)c(O)c2-c2c1cc(O)c(O)c2O	rat liver microsomal 5α-reductase (Rattus norvegicus)	6.3 ± 1.2 % of control
O=C(O[C@H]1[C@@H]2OC(=O)c3cc(O)c(O)c(O)c3-c3c(cc(O)c(O)c3O)C(=O)OC[C@H]2OC(O)[C@@H]1OC(=O)c1cc(O)c(O)c(O)c1)c1cc(O)c(O)c(O)c1 (stereo partly shown)	rat liver microsomal 5α-reductase (Rattus norvegicus)	9.2 ± 1.6 % of control
O=C(O[C@@H]1COC(=O)c2cc(O)c(O)c(O)c2-c2c(cc(O)c(O)c2O)C(=O)O[C@H]1[C@@H]1OC(=O)c2cc(O)c(O)c(O)c2-c2c(O)c(O)c(O)c3c2C(=O)O[C@H]1[C@@H]3O)c1cc(O)c(O)c(O)c1	rat liver microsomal 5α-reductase (Rattus norvegicus)	10.8 ± 0.7 % of control
